Attribution: patent US11472766B2

TEST_NAME: Apparent pKa of LNP formulations (TNS fluorescence assay)
REPORTED_CONDITIONS: LNP cationic lipid/DSPC/cholesterol/DMG-PEG 50/10/38.5/1.5 mol %, Table 3
Let's look at some molecules and their measured Apparant Pka.
Form: value (number only, do not type unit).

Some solved entries appear below for comparison.
CCCCCCCCC(CCCCCC)COC(=O)CCCCCN(CCCCCC(=O)OCC(CCCCCC)CCCCCCCC)CCN(CC(O)CCCC)C1CCC1 (centres unmarked) [Compound 33] | 5.315
CCCCC(CCCC)CCCCCC(=O)OCCCCCN(CCCCCOC(=O)CCCCCC(CCCC)CCCC)CCN(CCO)C1CCC1 [Compound 85] | 6.46
CCCCCCCCC(CCCCCC)COC(=O)CCCCCN(CCCCCC(=O)OCC(CCCCCC)CCCCCCCC)CCN(C1CCC1)C1CCC(O)CC1 (centres unmarked) [Compound 93] | 6.491
CCCCCCCCC(CCCCCC)COC(=O)CCCCCN(CCCCCC(=O)OCC(CCCCCC)CCCCCCCC)CCN(CCCO)C1CCC1 (centres unmarked) [Compound 28] | 6.529
CCCCCCCC(CCCCCCC)COC(=O)CCCCCN(CCCCCC(=O)OCC(CCCCCCC)CCCCCCC)CCN(CCO)C1CCC1 [Compound 49] | 6.249
CCCCCCCCCCCOC(=O)CCCCCN(CCCCCC(=O)OCC(CCCCCCCC)CCCCCCCC)CCN(CCO)C1CCCCCC1 [Compound 84] | 6.064
CCCCCCCCC(CCCCCC)COC(=O)CCCCCN(CCCCCC(=O)OCC(CCCCCC)CCCCCCCC)C(=O)CCCN(CCO)C1CCC1 (centres unmarked) [Compound 13] | 7.206
CCCCCCCCC(CCCCCC)CC(=O)COCCCCN(CCCCCOC(=O)CC(CCCCCC)CCCCCCCC)CCN(CCO)C1CCCCCC1 (centres unmarked) [Compound 27] | 6.153

The recorded Apparant Pka for CCCCCCCCC(CCCCCC)C(C)OC(=O)CCCCCN(CCCCCC(=O)OC(C)C(CCCCCC)CCCCCCCC)CCN(CCO)C1CCC1 (centres unmarked) [Compound 38] is 6.172

The recorded Apparant Pka for CCCCCCCCC(CCCCCC)COC(=O)CCCCCN(CCCCCC(=O)OCC(CCCCCC)CCCCCCCC)CCN(C)C1CC(O)C1 (centres unmarked) [Compound 59] is 6.682

The recorded Apparant Pka for CCCCCCCCC(CCCCCCCC)COC(=O)CCCCCN(CCCCCC(=O)OCC(CCCCCCCC)CCCCCCCC)CCN(CCCC)C1CCC(O)CC1 (centres unmarked) [Compound 67] is 6.341

The recorded Apparant Pka for CCCCCCCCC(CCCCCC)COC(=O)CCCCCN(CCCCCC(=O)OCC(CCCCCC)CCCCCCCC)CCN(CCC)C1CCC(O)CC1 (centres unmarked) [Compound 56] is 6.466

The recorded Apparant Pka for CCCCCCC(CCCCCC)CNC(=O)CCCCCN(CCCCCC(=O)OCC(CCCCCC)CCCCCC)CCN(CCO)C1CCCC1 [Compound 140] is 6.981

The recorded Apparant Pka for CCCCCCC(CCCCCC)CC(=O)NCCCCCN(CCCCCOC(=O)CC(CCCCCC)CCCCCC)CCN(CCO)C1CCCCCC1 [Compound 142] is 6.678

The recorded Apparant Pka for CCCCCCCCC(CCCCCCCC)CNC(=O)CCCCCN(CCCCCC(=O)NCC(CCCCCCCC)CCCCCCCC)CCN(CCO)C1CCCCC1 [Compound 137] is 6.751

The recorded Apparant Pka for CCCCCCCCC(CCCCCC)CC(=O)NCCCCCN(CCCCCOC(=O)CC(CCCCCC)CCCCCCCC)CCN(CCO)C1CCC1 (centres unmarked) [Compound 108] is 6.711

The recorded Apparant Pka for CCCCCCCCC(CCCCCC)COC(=O)CCCCCN(CCCCCC(=O)OCC(CCCCCC)CCCCCCCC)C(=O)CN(CCO)C1CCC1 (centres unmarked) [Compound 11] is 5.662

The recorded Apparant Pka for CCCCCCCCC(CCCCCC)COC(=O)CCCCCN(CCCCCC(=O)OCC(CCCCCC)CCCCCCCC)CCN(C(C)C)C1CCC(O)CC1 (centres unmarked) [Compound 57] is 6.645

The recorded Apparant Pka for CCCCCCCCC(CCCCCC)CNC(=O)CCCCCN(CCCCCC(=O)NCC(CCCCCC)CCCCCCCC)CCN(CCC)C1CCC(O)CC1 (centres unmarked) [Compound 135] is 6.652

The recorded Apparant Pka for CCCCCCCCC(CCCCCC)COC(=O)CCCCCN(CCCCCC(=O)OCC(CCCCCC)CCCCCCCC)CCN(CCO)C1CCOCC1 (centres unmarked) [Compound 89] is 6.7

The recorded Apparant Pka for CCCCCCCCC(CCCCCCCC)CC(=O)NCCCCCN(CCCCCOC(=O)CC(CCCCCCCC)CCCCCCCC)CCN(CCO)C1CCCC1 [Compound 143] is 6.836

The recorded Apparant Pka for CCCCCCCCCCCOC(=O)CCCCCN(CCCCCC(=O)OCC(CCCCCCCC)CCCCCCCC)CCN(CCO)C1CC1 [Compound 80] is 6.201

The recorded Apparant Pka for CCCCCCCCC(CCCCCC)C(=O)OCCCCCCCCCN(CCCCCCCCCOC(=O)C(CCCCCC)CCCCCCCC)CCN(CCO)C1CCC1 (centres unmarked) [Compound 44] is 6.049
